Assign Emax to each entry below.
# targetOrSystem: Kappa-type opioid receptor (Homo sapiens)
# Sequence (P41145 whole entry): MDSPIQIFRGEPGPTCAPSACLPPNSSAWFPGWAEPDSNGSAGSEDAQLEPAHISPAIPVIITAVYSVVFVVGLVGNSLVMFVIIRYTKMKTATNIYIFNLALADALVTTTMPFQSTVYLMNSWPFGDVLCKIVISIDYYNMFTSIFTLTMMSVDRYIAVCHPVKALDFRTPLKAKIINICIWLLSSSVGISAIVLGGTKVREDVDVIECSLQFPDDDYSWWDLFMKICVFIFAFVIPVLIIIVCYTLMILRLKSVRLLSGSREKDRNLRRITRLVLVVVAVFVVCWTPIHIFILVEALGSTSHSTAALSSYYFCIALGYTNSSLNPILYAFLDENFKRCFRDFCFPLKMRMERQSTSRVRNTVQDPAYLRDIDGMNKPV
# assayOverview: Agonist activity at human KOR stably expressed in CHO cell membranes assessed as stimulation of [35S]-GTPgammaS binding incubated for 1 hr by liquid scintillation counting assay relative to U69593
# Type: functional
# conditionParameters: time 60.0 min
Numbered stars: 1 amine (or outer) side, 2 acyl side, 3 side chain; on linkers, the order of the positions; unused ones are H or OH. Square brackets hold non-standard residues; d marks the D form. Peptide text beside a SMILES is read from it. X1 = O=C1[C@@H](N[*:1])Cc2ccccc2CN1CCC(=O)[*:2]; X2 = O=C([C@@H]1Cc2cc(O)ccc2CN1[*:1])[*:2]; Dmt = Cc1cc(O)cc(C)c1C[C@H](N)C(=O)O; Tle = CC(C)(C)[C@H](N)C(=O)O
Answers are plain numbers, in %.

Cc1cc(O)cc(C)c1C[C@H](NC(=O)[C@@H]1CCCN1C(=O)[C@H](CCCCN)NC(=O)[C@H](CCCCN)NC(=O)CCN1Cc2ccccc2C[C@H](NC(=O)[C@@H](CCCNC(=N)N)NC(=O)[C@@H](N)Cc2c(C)cc(O)cc2C)C1=O)C(=O)N[C@H](C(=O)N[C@@H](CC(C)C)C(=O)O)C(C)(C)C (H-[Dmt][dR][X1]KKP[Dmt][Tle]L-OH)
22
Cc1cc(O)cc(C)c1C[C@H](N)C(=O)N[C@H](CCCNC(=N)N)C(=O)N[C@H]1Cc2ccccc2CN(CCC(=O)N[C@@H](CCCCN)C(=O)N[C@@H](CCCCN)C(=O)N2CCC[C@H]2C(=O)N[C@@H](Cc2ccc(O)cc2)C(=O)N[C@H](C(=O)N[C@@H](CC(C)C)C(=O)O)C(C)(C)C)C1=O (H-[Dmt][dR][X1]KKPY[Tle]L-OH)
31

Need Emax, item Cc1cc(O)cc(C)c1C[C@H](N)C(=O)N[C@H](CCCNC(=N)N)C(=O)N[C@H]1Cc2ccccc2CN(CCC(=O)N[C@@H](CCCCN)C(=O)N[C@@H](CCCCN)C(=O)N2CCC[C@H]2C(=O)N2Cc3ccc(O)cc3C[C@H]2C(=O)N[C@H](C(=O)N[C@@H](CC(C)C)C(=O)O)C(C)(C)C)C1=O (H-[Dmt][dR][X1]KKP[X2][Tle]L-OH)
20

meta.source: ChEMBL document CHEMBL4699489
